experiment_notes: Hydrolysis in the dark (dark stability)
Format: physicochemical
measurement_context: buffered solution, read-out: t0.5 Half-life for hydrolysis in the dark (converted)
property_measured: half-life (h)

>>> reading("CC(=O)OCc1cc(=O)oc2cc(O)c(Br)cc12")
183
>>> reading("CC(=O)OCc1cc(=O)oc2cc(O)c(Cl)cc12")
228
>>> reading("CC(=O)OCc1c(Br)c(=O)oc2c(Br)c(O)c(Br)cc12")
218

====

experiment_notes: Electronic absorption and emission properties
Assay type: physicochemical
property_measured: λem (nm)

>>> reading("O=C(O)CC[C@H](NC(=O)OCc1cc(=O)oc2cc(O)c(Br)cc12)C(=O)O")
474
>>> reading("CC(=O)OCc1cc(=O)oc2cc(O)c(Br)cc12")
474
>>> reading("CC(=O)OCc1c(Br)c(=O)oc2c(Br)c(O)c(Br)cc12")
498
>>> reading("O=c1ccc2c(CCl)c3ccc(O)cc3oc-2c1")
538
>>> reading("CC(=O)OCc1cc(=O)oc2cc(O)c(Cl)cc12")
474

====

experiment_notes: In vitro measurements of two-photon uncaging and fluorescence cross-sections
Format: physicochemical
measurement_context: 800 nm, pH 7.2
# δu (800 nm) uncaging action cross-section for two-photon excitation per record follows

Quick one: δu (800 nm) uncaging action cross-section for two-photon excitation for `O=c1ccc2c(CCl)c3ccc(O)cc3oc-2c1` ?
2.6 10^−50 cm^4s/photon

Recorded δu (800 nm) uncaging action cross-section for two-photon excitation for `N[C@@H](CCC(=O)OCc1cc(=O)oc2cc(O)c(Br)cc12)C(=O)O` , please?
0.42 ± 10^−50 cm^4s/photon

If you can, please state the reported δu (800 nm) uncaging action cross-section for two-photon excitation value of `CC(=O)OCc1cc(=O)oc2cc(O)c(Br)cc12` .
0.42 ± 10^−50 cm^4s/photon

What value of measured δu (800 nm) uncaging action cross-section for two-photon excitation is listed for `CC(=O)OCc1cc(=O)oc2cc(O)c(Cl)cc12` ?
0.34 ± 10^−50 cm^4s/photon

Reported δu (800 nm) uncaging action cross-section for two-photon excitation, compound `CC(=O)OCc1c(Br)c(=O)oc2c(Br)c(O)c(Br)cc12` : ____
3.1 ± 10^−50 cm^4s/photon

// δu (800 nm) uncaging action cross-section for two-photon excitation lookup, key: `O=C(O)CC[C@H](NC(=O)OCc1cc(=O)oc2cc(O)c(Br)cc12)C(=O)O`
0.37 ± 10^−50 cm^4s/photon

====

experiment_notes: One-photon photolysis quantum efficiency (UV irradiation, HPLC analysis)
Format: physicochemical
measurement_context: 365 nm
Where a name gives a salt, the structure may show the parent alone.
property_measured: Qu1 Quantum efficiency for uncaging with one-photon excitation at 365 nm

The examples below pair each entry with its known result.
>>> reading("CC(=O)OCc1cc(=O)oc2cc(O)c(Cl)cc12")
0.019
>>> reading("O=C(O)CC[C@H](NC(=O)OCc1cc(=O)oc2cc(O)c(Br)cc12)C(=O)O")
0.019
>>> reading("COc1cc(COC(=O)CCC(N)C(=O)O)c([N+](=O)[O-])cc1OC (stereo not shown) [Compound 2, reference compound]")
0.004
>>> reading("NC(CCC(=O)OC(C(=O)O)c1ccccc1[N+](=O)[O-])C(=O)O (stereo not shown) [Compound 1, trifluoroacetate salt, reference compound]")
0.14

P: N[C@@H](CCC(=O)OCc1cc(=O)oc2cc(O)c(Br)cc12)C(=O)O
Q: CC(=O)OCc1c(Br)c(=O)oc2c(Br)c(O)c(Br)cc12
R: CC(=O)OCc1cc(=O)oc2cc(O)c(Br)cc12
// ranking: key=Qu1 Quantum efficiency for uncaging with one-photon excitation at 365 nm, reverse=True Use the labels to give the ranking in the order requested.
Q, R, P
(Q: 0.065, R: 0.037, P: 0.019)

====

experiment_notes: Electronic absorption and emission properties
Format: physicochemical
measurement_context: pH 7.2
property_measured: λmax Wavelength of peak absorbance (nm)

>>> reading("CC(=O)OCc1cc(=O)oc2cc(O)c(Br)cc12")
370
>>> reading("COc1cc(COC(=O)CCC(N)C(=O)O)c([N+](=O)[O-])cc1OC (stereo not drawn) [Compound 2, reference compound]")
345
>>> reading("N[C@@H](CCC(=O)OCc1cc(=O)oc2cc(O)c(Br)cc12)C(=O)O")
369
>>> reading("CC(=O)OCc1c(Br)c(=O)oc2c(Br)c(O)c(Br)cc12")
397
>>> reading("O=C(O)CC[C@H](NC(=O)OCc1cc(=O)oc2cc(O)c(Br)cc12)C(=O)O")
368
>>> reading("CC(=O)OCc1cc(=O)oc2cc(O)c(Cl)cc12")
370

====

experiment_notes: Electronic absorption and emission properties
Assay type: physicochemical
property_measured: Qf1 Quantum efficiency for fluorescence with one-photon excitation

>>> reading("CC(=O)OCc1cc(=O)oc2cc(O)c(Cl)cc12")
0.37
>>> reading("CC(=O)OCc1c(Br)c(=O)oc2c(Br)c(O)c(Br)cc12")
0.16

I: CC(=O)OCc1cc(=O)oc2cc(O)c(Br)cc12
II: O=C(O)CC[C@H](NC(=O)OCc1cc(=O)oc2cc(O)c(Br)cc12)C(=O)O
Of the two listed items, which has the higher Qf1 Quantum efficiency for fluorescence with one-photon excitation? First: I Second: II Refer to your chosen entry by its label in the reply.
II

====

experiment_notes: Electronic absorption and emission properties
Format: physicochemical
measurement_context: pH 7.2, at absorbance peak
This section presents compounds with their documented ε Molar absorptivity at absorbance peak values.

Sample records with ε Molar absorptivity at absorbance peak:
>>> reading("CC(=O)OCc1cc(=O)oc2cc(O)c(Br)cc12")
"15,000 M^−1cm^−1"
>>> reading("N[C@@H](CCC(=O)OCc1cc(=O)oc2cc(O)c(Br)cc12)C(=O)O")
"19,550 M^−1cm^−1"
>>> reading("CC(=O)OCc1c(Br)c(=O)oc2c(Br)c(O)c(Br)cc12")
"15,900 M^−1cm^−1"

Entry `O=C(O)CC[C@H](NC(=O)OCc1cc(=O)oc2cc(O)c(Br)cc12)C(=O)O` has what ε Molar absorptivity at absorbance peak?
17,470 M^−1cm^−1

Return reported ε Molar absorptivity at absorbance peak; argument: COc1cc(COC(=O)CCC(N)C(=O)O)c([N+](=O)[O-])cc1OC (stereo not drawn) [Compound 2, reference compound]
8,860 M^−1cm^−1

Any idea what ε Molar absorptivity at absorbance peak was measured for `CC(=O)OCc1cc(=O)oc2cc(O)c(Cl)cc12` ?
16,000 M^−1cm^−1

====

experiment_notes: Electronic absorption and emission properties
Type: physicochemical
measurement_context: 400 nm
property_measured: ε Molar Absorptivity at 400 nm

The examples below pair each entry with its known result.
>>> reading("CC(=O)OCc1c(Br)c(=O)oc2c(Br)c(O)c(Br)cc12")
"15,700 M^−1cm^−1"
>>> reading("CC(=O)OCc1cc(=O)oc2cc(O)c(Cl)cc12")
"5,000 M^−1cm^−1"
>>> reading("COc1cc(COC(=O)CCC(N)C(=O)O)c([N+](=O)[O-])cc1OC (stereo not drawn) [Compound 2, reference compound]")
"1,570 M^−1cm^−1"

Using the record for `CC(=O)OCc1cc(=O)oc2cc(O)c(Br)cc12` , report its ε Molar Absorptivity at 400 nm.
5,000 M^−1cm^−1

ε Molar Absorptivity at 400 nm for `O=C(O)CC[C@H](NC(=O)OCc1cc(=O)oc2cc(O)c(Br)cc12)C(=O)O` ?
5,400 M^−1cm^−1

What does the data say about its ε Molar Absorptivity at 400 nm? Entry: `N[C@@H](CCC(=O)OCc1cc(=O)oc2cc(O)c(Br)cc12)C(=O)O`
7,560 M^−1cm^−1

====

Below, each entry is listed with its recorded δu (740 nm) uncaging action cross-section for two-photon excitation.
experiment_notes: In vitro measurements of two-photon uncaging and fluorescence cross-sections
Assay type: physicochemical
measurement_context: 740 nm, pH 7.2

>>> reading("CC(=O)OCc1c(Br)c(=O)oc2c(Br)c(O)c(Br)cc12 [Compound 6]")
"0.96 ± 10^−50 cm^4s/photon"
>>> reading("CC(=O)OCc1cc(=O)oc2cc(O)c(Cl)cc12 [Compound 4]")
"1.07 ± 10^−50 cm^4s/photon"
>>> reading("O=c1ccc2c(CCl)c3ccc(O)cc3oc-2c1 [Compound 9]")
"1.6 10^−50 cm^4s/photon"

Would you kindly share the measured δu (740 nm) uncaging action cross-section for two-photon excitation for O=C(O)CC[C@H](NC(=O)OCc1cc(=O)oc2cc(O)c(Br)cc12)C(=O)O [Compound 7] ?
0.98 ± 10^−50 cm^4s/photon

Which δu (740 nm) uncaging action cross-section for two-photon excitation value belongs to CC(=O)OCc1cc(=O)oc2cc(O)c(Br)cc12 [Compound 5] ?
1.99 ± 10^−50 cm^4s/photon

Need δu (740 nm) uncaging action cross-section for two-photon excitation, item N[C@@H](CCC(=O)OCc1cc(=O)oc2cc(O)c(Br)cc12)C(=O)O [Compound 8]
0.89 ± 10^−50 cm^4s/photon
